# Test system: Wolbachia pipientis
# assay_details: Anti-Wolbachia Cell-Based Screen
# Assay type: functional
# Parameters: scale not given: in the data most compounds retested in dose-response had high values
# condition_details: 5 µM
Out of some 48,000 compounds screened, about 13,000 (27%) showed an effect of 50% or more. Some of the results follow.

compound	target_or_system	Percent Effect [%]
CC(=O)c1ccc(CN2C[C@@H](CN3CCC(O)CC3)[C@@H](CO)C2)cc1	Wolbachia pipientis	-12.65
O=C(CCCc1cn[nH]c1)N1C[C@@H](CN2CCOCC2)[C@@H](CO)C1	Wolbachia pipientis	24.78
O=C(CCc1cn[nH]c1)N1C[C@@H](CN2CCCCCC2)[C@@H](CO)C1	Wolbachia pipientis	3.932
O=C(CSCC1CC1)N1CCCN(Cc2ccc(F)cc2)CC1	Wolbachia pipientis	113.6
CSCCC(O)C(=O)N1CCCN(Cc2ccc(F)cc2)CC1 (stereo unspecified)	Wolbachia pipientis	20.52
OCc1csc(N2C[C@@H](CN3CCCCCC3)[C@@H](CO)C2)n1	Wolbachia pipientis	103.7

----------
Percent Effect values by entry
# Test system: Wolbachia pipientis
# assay_details: Anti-Wolbachia Cell-Based Screen
# Type: functional
# Parameters: scale not given: in the data most compounds retested in dose-response had high values
# condition_details: 5 µM
Screen size: about 48,000 compounds; about 13,000 (27%) showed an effect of 50% or more. This is one part of the list.

compound	Percent Effect, %
CC(=O)NCC(=O)NCC1Cn2nnc(-c3cccc(F)c3)c2CO1 (stereo not given)	-8.609
COCc1ncn(Cc2nc(-c3ccc(OC)c(OC)c3)oc2C)n1	7.274
CS(=O)(=O)N1C[C@@H](NC(=O)c2ccno2)[C@@H]2OCCC[C@@H]21	112.1
Cn1cc(C(=O)N[C@H]2CN(S(C)(=O)=O)[C@@H]3CCCO[C@H]23)cn1	0.3212
CCCNC(=O)CNc1cc(C(=O)N2CCSCC2)ccc1C	-10.89

----------
Each entry below carries its recorded Percent Effect.
# Test system: Wolbachia pipientis
# assay_details: Anti-Wolbachia Cell-Based Screen
# Type: functional
# Parameters: scale not given: in the data most compounds retested in dose-response had high values
# condition_details: 5 µM
The whole screen tested about 48,000 compounds, of which about 13,000 (27%) showed an effect of 50% or more. The list shows a part of the results.
parameter_measured: Percent Effect (%)

compound	parameter_measured	display_unit	measured
Cn1cc(CN2CCCC(CCc3ccccc3C(F)(F)F)C2)cn1 (configuration not stated)	Percent Effect	%	9.578
CCOC(=O)N1CCN(CC(=O)Nc2nnc(CC)s2)CC1	Percent Effect	%	-11.16
CCCc1n[nH]c(C2CN(C(=O)c3cncnc3C)CCO2)n1 (configuration not stated)	Percent Effect	%	104.8
O=C(O)C(F)(F)F.O=C1[C@@H]2CN(C3CCOCC3)C[C@H]2CCN1CC1CC1	Percent Effect	%	-15.82
Cc1n[nH]c(C)c1NC(=O)CN1CCn2c(nnc2C(C)C)C1	Percent Effect	%	-1.446
CCC(CC)C(=O)NC1CCCc2nc(N3CCOCC3)ncc21 (configuration not stated)	Percent Effect	%	97.19
CC(C)C(=O)NC1CCCc2nc(N3CCOCC3)ncc21 (configuration not stated)	Percent Effect	%	72.33
Cc1noc(C)c1CCC(=O)N[C@@H]1CC[C@@H](Oc2cccnc2)[C@@H]1O	Percent Effect	%	106.7
COCCN1CCCC2(CCN(c3nccnc3N(C)C)C2)C1=O (configuration not stated)	Percent Effect	%	-5.787
CCC(C)NC(=O)CN1CCOCC1 (configuration not stated)	Percent Effect	%	4.194
COc1cc(-c2n[nH]c(CO)n2)cc(OC)c1OC	Percent Effect	%	101.2
COCC(NC(=O)c1ccoc1)c1ccc(C)o1 (configuration not stated)	Percent Effect	%	-2.661
O=C(NCCOCCO)[C@@]12CNC[C@@H]1CN(C1CCCC1)C2	Percent Effect	%	-7.865
CCn1c(C)nnc1SCCNc1nc(C)ncc1S(C)(=O)=O	Percent Effect	%	-10.91
Cc1n[nH]c(C)c1CCCNCc1cn(CCC(N)=O)c2ccccc12	Percent Effect	%	-2.861
CCn1cc2c(n1)C(COCC1CC1)CN(C(=O)c1ccsc1)C2 (configuration not stated)	Percent Effect	%	2.501
Cc1ccc2c(c1)c(CNC(C)Cn1nc(C)cc1C)nn2C (configuration not stated)	Percent Effect	%	8.057
Cn1cc(CN2CCOC(c3nccnc3-c3cccc(F)c3)C2)cn1 (configuration not stated)	Percent Effect	%	187.6
COc1cc(-c2cnnc(NCCSC)n2)cc(OC)c1OC	Percent Effect	%	-5.891
Cc1noc(C)c1CN1CCOC2(CCCN(c3ccccn3)C2)C1 (configuration not stated)	Percent Effect	%	-3.1
Cc1cnn(CC(C)NCc2ccc(OCc3ccncc3)cc2)c1 (configuration not stated)	Percent Effect	%	2.463
COCC1CN(C(=O)COc2ccc(C)cc2)Cc2cn(C)nc21.O=C(O)C(F)(F)F (configuration not stated)	Percent Effect	%	-4.21
O=C1CCN(C(=O)C2(c3ccc(F)cc3)CCOCC2)CCN1	Percent Effect	%	5.245
COc1cc(-c2n[nH]c(CC#N)n2)cc(OC)c1OC	Percent Effect	%	137.1
CC(=O)c1ccccc1C(=O)NCC1(CO)CC1	Percent Effect	%	-16.93
Cn1cc(CNC(=O)C2CCCN(Cc3cccc(F)c3)C2)cn1 (configuration not stated)	Percent Effect	%	-5.601
CCCn1ccnc1CN1C[C@@H](NC(C)=O)[C@H](c2ccc(OC)cc2)C1	Percent Effect	%	-11.71
COc1ccc([C@@H]2CN(Cc3ccncc3)C[C@H]2N(C)C)cc1	Percent Effect	%	115.9
CCOC(=O)c1c(NC(=O)CN2CCN(C(C)=O)CC2)sc(C)c1C	Percent Effect	%	112.4
COc1cc(-c2n[nH]c(CCN)n2)cc(OC)c1OC	Percent Effect	%	136.2
Cc1nn(C)c(Oc2cccnc2)c1NC(=O)C1CCCO1 (configuration not stated)	Percent Effect	%	5.234
COc1ccc(-c2ccccc2CCN)c(OC)c1OC	Percent Effect	%	-10.47
CCOC(=O)N1CCC(C(=O)Nc2nnc(C(F)(F)F)[nH]2)CC1	Percent Effect	%	5.698
Cc1n[nH]c(C)c1CCC(=O)N[C@@H]1CCC[C@@H](Oc2ccccc2)[C@@H]1O	Percent Effect	%	124.4
CNC(=O)COc1ccccc1CNCc1c(C)noc1C	Percent Effect	%	-55.32
COc1cc(CO)c(OC)c2c1OCO2	Percent Effect	%	0.3319
Cn1cc(CN2CCCC(c3nccnc3-c3cccc(F)c3)C2)cn1 (configuration not stated)	Percent Effect	%	135.8
Cc1n[nH]c(C)c1CNC(=O)NC1CCCCC1	Percent Effect	%	-5.785
COc1ccc(C(C)N2CCC(NS(C)(=O)=O)CC2)cc1Cl (configuration not stated)	Percent Effect	%	-1.711
c1ccc(NCc2cn3c(n2)CN(Cc2ccoc2)CC3)nc1	Percent Effect	%	6.648
COc1ccccc1C1CNC(=O)c2nc(-c3ncc[nH]3)[nH]c2C1 (configuration not stated)	Percent Effect	%	-17.95
COCc1cccc(NS(=O)(=O)c2cc(C(=O)O)cs2)c1	Percent Effect	%	-2.674
CCCc1n[nH]c(C2CN(C(=O)c3ccc(C)[nH]c3=O)CCO2)n1 (configuration not stated)	Percent Effect	%	101.9
CCNC(=O)[C@@H]1CCCN1C1(C(=O)NC)CCC1.Cl	Percent Effect	%	0.1969
CCc1c(C)sc(NC(=O)CN2CCOCC2)c1C(=O)OC	Percent Effect	%	123.3
COc1cc(CNc2nc3c(c(=O)[nH]2)CCNC3)cc(OC)c1OC	Percent Effect	%	-8.828
CN(C)C(CNC(=O)c1nc(N2CCOCC2)ncc1Cl)c1ccco1 (configuration not stated)	Percent Effect	%	-7.125
